assay: in vivo; settings: CD1 nude, mouse, 0.5 nmol/mouse, total radioactivity, Salivary glands uptake
EXPERIMENTAL READOUT: tissue uptake at 24 h (%ID/g)
Report as a plain number; the unit %ID/g is understood.

Return reported tissue uptake at 24 h; argument: Cc1ccc(CCCC(=O)NCCOCCOCCOCCOCCC(=O)NCCCC[C@H](NC(=O)CN2CCN(CC(=O)O)CCN(CC(=O)O)CCN(CC(=O)O)CC2)C(=O)N[C@@H](CC(=O)O)C(=O)N[C@@H](CC2CCCCC2)C(=O)N[C@@H](Cc2ccccc2)C(=O)N[C@H](CO)C(=O)N[C@H](CCCNC(=N)N)C(=O)N[C@@H](Cc2ccc(O)cc2)C(=O)N[C@@H](CC(C)C)C(=O)N[C@@H](Cc2c[nH]c3ccccc23)C(=O)N[C@@H](CO)C(N)=O)cc1 [[^177Lu]Lu-uPAR-11, metal not drawn]
0.17

###

test: in vivo; conditions: CD1 nude, mouse, 0.5 nmol/mouse, total radioactivity, Muscle uptake
EXPERIMENTAL READOUT: tissue uptake at 1 h
Note: state the figure and append the unit.

Return reported tissue uptake at 1 h; argument: Cc1ccc(CCCC(=O)NCCOCCOCCOCCOCCC(=O)NCCCC[C@H](NC(=O)CN2CCN(CC(=O)O)CCN(CC(=O)O)CCN(CC(=O)O)CC2)C(=O)N[C@@H](CC(=O)O)C(=O)N[C@@H](CC2CCCCC2)C(=O)N[C@@H](Cc2ccccc2)C(=O)N[C@H](CO)C(=O)N[C@H](CCCNC(=N)N)C(=O)N[C@@H](Cc2ccc(O)cc2)C(=O)N[C@@H](CC(C)C)C(=O)N[C@@H](Cc2c[nH]c3ccccc23)C(=O)N[C@@H](CO)C(N)=O)cc1 [[^177Lu]Lu-uPAR-11, metal not drawn]
1.4 %ID/g

###

assay type: in vitro ADME; conditions: 1 h, 1 µM
EXPERIMENTAL READOUT: Human blood plasma stability, intact radiopeptide (%)
Report as a plain number; the unit % is understood.

Return reported Human blood plasma stability, intact radiopeptide; argument: Cc1ccc(CCCC(=O)NCCOCCOCCOCCOCCC(=O)NCCCC[C@H](NC(=O)CN2CCN(CC(=O)O)CCN(CC(=O)O)CCN(CC(=O)O)CC2)C(=O)N[C@@H](CC(=O)O)C(=O)N[C@@H](CC2CCCCC2)C(=O)N[C@@H](Cc2ccccc2)C(=O)N[C@H](CO)C(=O)N[C@H](CCCNC(=N)N)C(=O)N[C@@H](Cc2ccc(O)cc2)C(=O)N[C@@H](CC(C)C)C(=O)N[C@@H](Cc2c[nH]c3ccccc23)C(=O)N[C@@H](CO)C(N)=O)cc1 [[^177Lu]Lu-uPAR-11, metal not drawn]
99

Return reported Human blood plasma stability, intact radiopeptide; argument: Cc1ccc(CCCC(=O)NCCOCCOCCOCCOCCC(=O)NC[C@H](NC(=O)CN2CCN(CC(=O)O)CCN(CC(=O)O)CCN(CC(=O)O)CC2)C(=O)N[C@@H](CC(=O)O)C(=O)N[C@@H](CC2CCCCC2)C(=O)N[C@@H](Cc2ccccc2)C(=O)N[C@H](CO)C(=O)N[C@H](CCCNC(=N)N)C(=O)N[C@@H](Cc2ccc(O)cc2)C(=O)N[C@@H](CC(C)C)C(=O)N[C@@H](Cc2c[nH]c3ccccc23)C(=O)N[C@@H](CO)C(N)=O)cc1 [[^177Lu]Lu-uPAR-14, metal not drawn]
100

Cited source: paper PMC12920294
